Where these numbers come from: PubChem BioAssay (NCI)

# System: OVCAR-4 ovarian
# experimental-protocol: NCI-60 one-dose screen, 48 h
# measurement-parameters: 10 µM unless noted
The panel holds about 83,000 compounds, 20% with a hit somewhere; the sample as a whole holds those more often. Activity calls are given as the source filed them. Rule for the calls: active = growth percent below 10; inactive = the rest.
Select the matching outcome among active, inactive

*Q* Outcome? `COc1cc(/C=C/C(=O)c2ccccc2)ccc1Oc1nc(NCCO)nc(N2CCOCC2)n1`
*A* inactive

*Q* Name the outcome recorded for `COc1ccc(C(=O)c2cc(C(=O)/C=C/c3c(Cl)cccc3Cl)c3cc(C)ccn23)cc1` in the assay.
*A* inactive

*Q* Entry `Fc1ccc(-c2cc3nc(C(Cl)Cl)nc(-c4ccccc4)n3n2)cc1` : call = ?
*A* active

*Q* Can you look up the reported call for COC(=O)C(Cc1ccccc1)NS(=O)(=O)/N=C1\NC(=O)NC1=C(Cl)Cl (stereo not given) for me?
*A* inactive

*Q* Lab log entry: `OC1CCN(CCCOc2c3ccccc3nc3c2oc2ccccc23)CC1` — outcome as called in the assay?
*A* active

====

# System: SR leukemia
# experimental-protocol: NCI-60 one-dose screen, 48 h
# measurement-parameters: 10 µM unless noted
About 83,000 compounds went through this panel and 20% of them were active in at least one assay; those are over-represented in the sample as a whole. The source made the active and inactive calls. The calls were made as follows: active = growth percent below 10; inactive = the rest.
Bench note: report the call from active, inactive

*Q* Outcome? `Clc1ccc2oc3c(NCCCn4ccnc4)c4ccccc4nc3c2c1`
*A* active

*Q* // outcome(item) with item = `CN1CCN(Cc2ccc(NC(=O)c3cncc(C#Cc4cnc5[nH]ncc5c4)c3)cc2C(F)(F)F)CC1`
*A* inactive

*Q* # lookup: test call for `NC(=O)c1c(NC(=O)c2ccc(C3CCCCC3)cc2)sc2c1CCC(=O)C2`
*A* active

*Q* Short answer needed: outcome of this test for `N#Cc1c(-c2ccc(Cl)cc2)nc(SCc2ccc([N+](=O)[O-])cc2)nc1N1CCNCC1` ?
*A* active

*Q* Assay result, entry `O=C(CN1C(=O)/C(=C/c2ccccc2)SC1=S)N1CCOCC1` — outcome?
*A* inactive

*Q* I would be grateful if you could indicate the recorded call for C#Cc1nc(C2=C(C)C(OC(C)=O)/C(=N/OC(C)=O)C2)cs1 (stereo not drawn) .
*A* active

*Q* Hi, sorry to bother you, what did the test record for `COc1ccc2[nH]cc(-c3cc(N)n4nc(-c5c[nH]c6ccc(OC)cc56)cc4n3)c2c1` ?
*A* active

*Q* Called result for `CS(=O)(=O)c1ccc(-c2nc3ccccn3c2C=Nc2ccc(Cl)cc2)cc1`
*A* inactive

*Q* Please share the test call associated with `CC(C)NC(=O)c1cc(-c2ccc(NC(=O)Nc3ccc(N4CCOCC4)c(C(F)(F)F)c3)cc2)nc2cccnc12` .
*A* inactive

*Q* Could you please tell me the result logged for `CCN1CCN(/C(=N\c2sc(-c3ccccc3)nc2-c2ccccc2)c2ccccc2)CC1` in this assay?
*A* inactive

*Q* Identify the outcome logged in this assay for the compound shown: `CN(C)CCCNc1c2ccc(Cl)cc2nc2c1oc1ccccc12`
*A* active

*Q* Tell me the recorded outcome of this test for `COc1cc(/C=C/C(=O)c2cc(OC)c(OC)c(OC)c2)ccc1Oc1nc(NCCO)nc(N2CCOCC2)n1` .
*A* active

*Q* What classification did `COc1cc(/C=C/C(=O)c2ccc(Cl)cc2)ccc1Oc1nc(NCCO)nc(N2CCOCC2)n1` end up with in this test?
*A* active

*Q* Answer briefly: the call reported for `Cn1ccnc1C(=O)/C=C/c1ccc(NC(=O)Nc2ccc(F)cc2)cc1` in this assay.
*A* active

*Q* I would be grateful if you could indicate the recorded call for `OC1CCN(CCCOc2c3ccccc3nc3c2oc2ccccc23)CC1` .
*A* active

*Q* Could you kindly confirm the outcome this assay logged for O=C(c1ccc(Cl)cc1)C1[C@H](c2ccc(Cl)cc2)[C@@H](c2ccccc2)NC12C(=O)Nc1ccc(Br)cc12 (stereo partly drawn) ?
*A* active

*Q* For this compound, state the assay outcome: O=C1NC(=C(Cl)Cl)/C(=N/S(=O)(=O)N2CCCCC2CC2(C(F)(F)F)N=N2)N1 (stereo not drawn)
*A* active

*Q* Please indicate how the test categorized `Cc1ccc(CNS(=O)(=O)/N=C2\NC(=O)NC2=C(Cl)Cl)cc1` .
*A* inactive

*Q* Recorded test call requested for `COc1cc2cc(Oc3ccc(NC(=O)c4cccc(C(F)(F)F)c4)cc3)c(C)nc2cc1OCCN1CCCCC1`
*A* active

*Q* Give the logged outcome of this assay for the following compound: `CCOC(=O)c1c(NC(=O)c2cccc(C(F)(F)F)c2)sc2cc(O)ccc12`
*A* inactive

*Q* State the result this test recorded for `Cc1[nH]nc2ncc(C#Cc3cncc(C(=O)Nc4ccc(CN5CCN(C)CC5)c(C(F)(F)F)c4)c3)cc12` .
*A* inactive

*Q* Test call for this compound, please: `O=c1/c(=C\c2ccc(-c3ccccc3)o2)sc2nc(-c3ccccc3)nn12`
*A* inactive

*Q* Check the results log: what was the call for `Fc1ccc(-c2cc3nc(C(Cl)Cl)nc(-c4ccc(Cl)cc4)n3n2)cc1` ?
*A* active

*Q* What did this assay record as the result for `Clc1ccc2oc3c(NCCCN4CCOCC4)c4ccccc4nc3c2c1` ?
*A* active

*Q* Could you kindly confirm the outcome this assay logged for `N#Cc1c(-c2ccc(Cl)cc2)nc(SCc2ccc(F)cc2)nc1N1CCNCC1` ?
*A* active

*Q* Check the results log: what was the call for COc1cc2nc(-c3ccc(Cl)cc3)cc(OCCCNCC3CCCO3)c2cc1OC (stereo not drawn) ?
*A* inactive

*Q* Given `CCCCCCNC(=O)Oc1ccc(/C(=C(/C)c2ccccc2)c2ccc(OCCN3CCCCCC3)cc2)cc1` , state the outcome it received in this test.
*A* active

*Q* Outcome? `CS(=O)(=O)Nc1ccc(-c2nn(-c3ccc(S(C)(=O)=O)cc3)cc2/C=C/C(=O)c2ccc(NC(=O)CO[N+](=O)[O-])cc2)cc1`
*A* inactive

*Q* Would you mind telling me which call this test gave `CS(=O)(=O)c1ccc(-c2nc3ccccn3c2/C=N/Nc2nc(-c3ccc(Cl)cc3)cs2)cc1` ?
*A* inactive

*Q* Record lookup: outcome of this test for `OC1CCN(CCCOc2c3ccc(Cl)cc3nc3c2oc2ccccc23)CC1` ?
*A* active

*Q* Per the records of this test, what outcome belongs to CCN1C(=S)N(c2ccccc2)C2NC(=O)N(/N=C/C=C/c3ccccc3OC)C21 (stereo not drawn) ?
*A* inactive

*Q* Test call for this compound, please: `O=C(CCN1C(=O)/C(=C/c2ccccc2F)SC1=S)N1CCOCC1`
*A* inactive

*Q* I'd appreciate the recorded outcome for `Clc1ccc(Cc2nnc3sc(-c4cccnc4)nn23)cc1` from this test.
*A* inactive

*Q* For this compound, state the assay outcome: `Nc1c(C(=O)Nc2ccc(C(F)(F)F)cc2)sc2nc(-c3cnccn3)cc(-c3cccs3)c12`
*A* inactive

*Q* What did this assay record as the result for `Clc1ccc2c(NCCCn3ccnc3)c3oc4ccccc4c3nc2c1` ?
*A* active

*Q* // outcome(item) with item = `N#Cc1c(-c2ccc(Cl)cc2)nc2c(-c3ccccc3)c(Nc3ccccc3)nn2c1N`
*A* inactive

*Q* // outcome(item) with item = `COc1ccc(C(=O)c2cc(C(=O)/C=C/c3c(Cl)cccc3Cl)c3cc(C)ccn23)cc1`
*A* inactive

*Q* Recorded test outcome, item Nc1nc(N)c2c(n1)NC(c1ccc(F)cc1)CC(c1ccc(Nc3nc(NCCO)nc(Nc4ccc(Cl)cc4)n3)cc1)=N2 (stereo not drawn)
*A* active
